Exercise: state measured protein stability index for each of the sequences provided.
- procedure_summary: protein stability index of a GFP-peptide fusion (GPS, HEK-293T) (PSI 1-6); higher = more stable;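 further: 24-mer peptide tiles fused after GFP, lentivirally expressed, FACS-sorted into six equal bins by GFP/DsRed ratio, decoded by Illumina sequencing, PSI is the read-weighted mean bin number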
- test_conditions: treatment: DMSO; c terminus: a fixed tail appended
One number for each entry.

Worked cases, answers included:
QAAVAAGDVHTVRKMLEQGYSPNG [ASB7] | 4.09
SDLNEVPVKELAALPKATILDLSC [LRRC59] | 3.96

Record summary for TQRRTSMGGTQQQFVEGVRMEEIV [CTNNB1] : reported protein stability index = 4.05

====

- procedure_summary: protein stability index of a GFP-peptide fusion (GPS, HEK-293T) (PSI 1-6); higher = more stable
- test_conditions: treatment: DMSO; c terminus: a fixed tail appended
Kind request: treat 3 as inclusive, so protein stability index at 3 or higher is condition met, anything lower is condition not met.

LSHAGQKATAAFSNVGTAISKKFG [TPD52L1] | condition met
YKGLFEVNPWKREVKLLLSSETPI [APMAP] | condition not met
QSLYQEVFGRLRDENGRPYSPSQY [NFE2L1] | condition met
ADGSPPLLPPGEPPLLGTFPRDHT [ANKRD40] | condition met
YNSFHKLRDRAERIASRAIDNAAD [SNX8] | condition met

INPUT: Dear colleague, could you confirm whether NETRRKHETRLVEVDSGRQIEYEY [LMNB1] has protein stability index at or above 3?
OUTPUT: condition met

INPUT: Please check the record AREGGGCGRSEVRPVAPRRPRDAV [SMAD6] and state if its protein stability index is at or above 3.
OUTPUT: condition met

INPUT: Is protein stability index for LAHLAPLFDNPKLDKELRAMLREK [INTS3] at or above 3?
OUTPUT: condition not met

INPUT: Could you tell me if the measured protein stability index of ERLVVLDYIIRNTDRGNDNWLIKY [PI4K2A] reaches 3 or more?
OUTPUT: condition not met

INPUT: Dear colleague, could you confirm whether FLLSVYAPGSSVEYQCQNLYQLEG [CFHR2] has protein stability index at or above 3?
OUTPUT: condition not met

INPUT: Hello, I need to know if GCTGDEAESRGHSKGWGRNYASII [MYCL] has measured protein stability index not below 3. Thanks!
OUTPUT: condition met

INPUT: Does the reported protein stability index for DDSCLNNDIPHSIPLEQGSSCNGP [FAN1] fall at or above the 3 mark?
OUTPUT: condition met

INPUT: # bool: protein stability index of QGASESQAPGEENLLGEAAGGQDM [HDAC6] >= 3
OUTPUT: condition met

INPUT: Test whether the sequence AVMFFIVFFAYAQLGYLLFGTQVE [PKD2L1] records protein stability index of 3 or higher.
OUTPUT: condition not met

INPUT: Form field: protein stability index at least 3? Entry: LLETDAGPAASEGAEQPPDLHCVL [GADD45A]
OUTPUT: condition met

INPUT: Decide: is the reported value of protein stability index for DTGETSMLKRPVLLHLHQTAHADE [STEAP1] equal to or greater than 3?
OUTPUT: condition met

INPUT: Could you tell me if the measured protein stability index of SPTSGKFRRGSGSACSLLCCCGRD [MCOLN1] reaches 3 or more?
OUTPUT: condition met

INPUT: Quick check: does AAEGEGSPPAVAAVAGPPAAAEVG [ANKRD17] have protein stability index greater than or equal to 3?
OUTPUT: condition met

INPUT: Quick check, protein stability index >= 3? DDDDHDDHEDNDKMNDSEGMDPER [NOL4L]
OUTPUT: condition met

INPUT: Say whether APLSGPQALMLPPGSFWGLCQVAQ [VENTX] shows protein stability index of 3 or more.
OUTPUT: condition not met

INPUT: hey, is protein stability index for this one >= 3? GAVAPMDFTTAAEDQPINLCDKLP [NOL4L]
OUTPUT: condition met

INPUT: Please tell me: is the sequence NAVRQNGQLVRNDSLWHRSDSAPR [MFF] at or over 3 in terms of protein stability index?
OUTPUT: condition met

INPUT: Determine whether this sequence has protein stability index no lower than 3: SIVIFCLETLPEFRDEKDYPASTS [KCNA3]
OUTPUT: condition not met

INPUT: Is reported protein stability index greater than or equal to 3 here: HDTKDQSPSRAPGLRQRASNKVQD [HMOX1]
OUTPUT: condition met

INPUT: protein stability index >= 3 for SQWKDPALSQLICFCRESRYMDQW [GADD45A] ?
OUTPUT: condition not met

INPUT: Decide: is the reported value of protein stability index for TQRQFTILNFNDLMSSAVPMTPED [AASDHPPT] equal to or greater than 3?
OUTPUT: condition met

INPUT: State whether the measured protein stability index reaches 3, counting equality as reaching it, for SGKWTFQRDSKRWSRLEEFDVFSP [DLC1]
OUTPUT: condition not met

INPUT: Determine whether measured protein stability index meets or exceeds 3 for LKPNNLSCDLPEERYRHEIAHDGQ [KLHDC10]
OUTPUT: condition met

INPUT: Kindly determine if protein stability index recorded for ICTQKCALNWTDIPVAMEHQPPYI [VPS39] is above or exactly 3.
OUTPUT: condition not met
